Readings of fluorescence slope for the listed compounds
target: Voltage-gated potassium channel subunit beta-2 (Rattus norvegicus) (UniProt P62483); assay: inhibitors of rat Kvbeta2 reductase activity – biochemical, NADPH fluorescence, primary screen (AID 622); conditions: recombinant KvBeta, 4-cyanobenzaldehyde reduction, at 10 µM, stronger effect = higher value;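 note: slope of raw intensity against log time taken from 70 to 1610 s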
Sequence (P62483 whole entry, looked up): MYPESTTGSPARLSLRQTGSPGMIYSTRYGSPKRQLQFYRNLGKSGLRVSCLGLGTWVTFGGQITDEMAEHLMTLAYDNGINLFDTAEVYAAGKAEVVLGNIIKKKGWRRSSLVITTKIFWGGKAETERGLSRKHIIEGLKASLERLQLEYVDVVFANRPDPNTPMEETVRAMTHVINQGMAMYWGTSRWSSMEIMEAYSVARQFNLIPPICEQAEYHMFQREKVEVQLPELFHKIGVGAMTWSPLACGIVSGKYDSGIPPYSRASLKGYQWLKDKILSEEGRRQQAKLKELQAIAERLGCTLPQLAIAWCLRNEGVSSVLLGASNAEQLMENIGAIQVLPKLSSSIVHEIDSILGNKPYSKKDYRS
reported.metric: fluorescence slope

compound: COc1cccc(-n2c(SCC(=O)Nc3cc(C)on3)nc3c([nH]c4ccccc43)c2=O)c1
tested.system: Voltage-gated potassium channel subunit beta-2 (Rattus norvegicus) (UniProt P62483)
reported.metric: fluorescence slope
result: -0.539
//
compound: Cc1cc(NC(=O)COc2cccc(C)c2C)no1
tested.system: Voltage-gated potassium channel subunit beta-2 (Rattus norvegicus) (UniProt P62483)
reported.metric: fluorescence slope
result: -0.549
//
compound: CN(C)CC(C(=O)c1ccccc1)c1ccccc1 (stereo unspecified)
tested.system: Voltage-gated potassium channel subunit beta-2 (Rattus norvegicus) (UniProt P62483)
reported.metric: fluorescence slope
result: -0.251
//
compound: CNC(=O)C1C2C=CC3(O2)C1C(=O)N(C1CC1)C3C(=O)NCc1ccc(OC)cc1 (stereo unspecified)
tested.system: Voltage-gated potassium channel subunit beta-2 (Rattus norvegicus) (UniProt P62483)
reported.metric: fluorescence slope
result: -0.533
//
compound: CC1CCN(CCc2nc3cc(NS(=O)(=O)c4ccc(F)cc4)ccc3n2C)CC1
tested.system: Voltage-gated potassium channel subunit beta-2 (Rattus norvegicus) (UniProt P62483)
reported.metric: fluorescence slope
result: -0.5
//
compound: CC1CCN(c2c(NCc3ccc(C(=O)N4c5ccccc5CC4C)cc3)c(=O)c2=O)CC1 (stereo unspecified)
tested.system: Voltage-gated potassium channel subunit beta-2 (Rattus norvegicus) (UniProt P62483)
reported.metric: fluorescence slope
result: -0.572

Data origin, for the record: PubChem BioAssay
